test readout: melting point

[[record]]
molecule_smiles = "CCOc1ccc(-c2oc(C)nc2-c2cc(OC)c(OC)c(OC)c2)cc1Cl"
result = "124 to 126 °C"

[[record]]
molecule_smiles = "COc1ccc(-c2oc(C)nc2-c2cc(OC)c(OC)c(OC)c2)cc1Cl"
result = "150 to 152 °C"

[[record]]
molecule_smiles = "COc1cc(-c2oc(C)nc2-c2ccc(Cl)cc2)cc(OC)c1OC"
result = "149 to 151 °C"

[[record]]
molecule_smiles = "COc1cc(-c2oc(C)nc2-c2ccc3ccccc3c2)cc(OC)c1OC"
result = "95 to 97 °C"

[[record]]
molecule_smiles = "COc1ccc(-c2oc(C)nc2-c2cc(OC)c(OC)c(OC)c2)cc1F"
result = "127 to 129 °C"

[[record]]
molecule_smiles = "CCOc1ccc(-c2nc(C)oc2-c2cc(OC)c(OC)c(OC)c2)cc1"
result = "116 to 118 °C"

[[record]]
molecule_smiles = "COc1cc(-c2oc(C)nc2-c2ccc(F)cc2)cc(OC)c1OC"
result = "132 to 133 °C"

[[record]]
molecule_smiles = "COc1cc(-c2oc(C)nc2-c2ccc(C)cc2)cc(OC)c1OC"
result = "128 to 129 °C"

[[record]]
molecule_smiles = "COc1ccc(-c2nc(C)oc2-c2cc(OC)c(OC)c(OC)c2)cc1"
result = "108 to 110 °C"


----------
- Tested on: panel of seven human tumor cell lines
- assay comment: Antiproliferative activity, range over panel of seven human tumor cell lines
- Assay type: cell-based
- conditions: read-out: IC50 values, range over the cell line panel
test readout: IC50

[[record]]
compound = "COc1ccc(/C=C\\c2cc(OC)c(OC)c(OC)c2)cc1O [CA-4, combretastatin A-4, reference compound]"
test_readout = "IC50"
result = "0.8 to 3100 nM"

[[record]]
compound = "CCOc1ccc(-c2oc(C)nc2-c2cc(OC)c(OC)c(OC)c2)cc1 [Compound 4i]"
test_readout = "IC50"
result = "0.5 to 20.2 nM"


----------
- Test system: HeLa
- assay comment: Antiproliferative MTT assay, HeLa
- Type: cell-based, human
- conditions: Homo sapiens, HeLa, 72 h, mean ± SE
test readout: IC50 (nM)

[[record]]
compound = "COc1cc(-c2nc(C)oc2-c2ccc3ccccc3c2)cc(OC)c1OC"
test_readout = "IC50"
limit_sign = "="
quantitative_result = 2.1

[[record]]
compound = "COc1ccc(-c2oc(C)nc2-c2cc(OC)c(OC)c(OC)c2)cc1F"
test_readout = "IC50"
limit_sign = "="
quantitative_result = 2.4

[[record]]
compound = "CCOc1ccc(-c2oc(C)nc2-c2cc(OC)c(OC)c(OC)c2)cc1Cl"
test_readout = "IC50"
limit_sign = "="
quantitative_result = 4.2

[[record]]
compound = "COc1ccc(-c2oc(C)nc2-c2cc(OC)c(OC)c(OC)c2)cc1"
test_readout = "IC50"
limit_sign = "="
quantitative_result = 10.8

[[record]]
compound = "COc1ccc(-c2oc(C)nc2-c2cc(OC)c(OC)c(OC)c2)cc1Cl"
test_readout = "IC50"
limit_sign = "="
quantitative_result = 169

[[record]]
compound = "COc1cc(-c2oc(C)nc2-c2ccc(Cl)cc2)cc(OC)c1OC"
test_readout = "IC50"
limit_sign = "="
quantitative_result = 2560

[[record]]
compound = "CCOc1ccc(-c2nc(C)oc2-c2cc(OC)c(OC)c(OC)c2)cc1"
test_readout = "IC50"
limit_sign = "="
quantitative_result = 2

[[record]]
compound = "CCOc1ccc(-c2oc(C)nc2-c2cc(OC)c(OC)c(OC)c2)cc1"
test_readout = "IC50"
limit_sign = "="
quantitative_result = 0.9

[[record]]
compound = "COc1cc(-c2oc(C)nc2-c2ccc(C)cc2)cc(OC)c1OC"
test_readout = "IC50"
limit_sign = "="
quantitative_result = 148

[[record]]
compound = "COc1ccc(-c2nc(C)sc2-c2cc(OC)c(OC)c(OC)c2)cc1 [Compound 3e, reference compound]"
test_readout = "IC50"
limit_sign = "="
quantitative_result = 1980

[[record]]
compound = "COc1cc(-c2oc(C)nc2-c2ccc(F)cc2)cc(OC)c1OC"
test_readout = "IC50"
limit_sign = ">"
quantitative_result = 10000

[[record]]
compound = "COc1ccc(-c2nc(C)oc2-c2cc(OC)c(OC)c(OC)c2)cc1"
test_readout = "IC50"
limit_sign = "="
quantitative_result = 24

[[record]]
compound = "COc1cc(-c2oc(C)nc2-c2ccc3ccccc3c2)cc(OC)c1OC"
test_readout = "IC50"
limit_sign = "="
quantitative_result = 37

[[record]]
compound = "COc1ccc(/C=C\\c2cc(OC)c(OC)c(OC)c2)cc1O [CA-4, combretastatin A-4, reference compound]"
test_readout = "IC50"
limit_sign = "="
quantitative_result = 4

[[record]]
compound = "COc1cc(-c2nc(C)oc2-c2ccc(C)cc2)cc(OC)c1OC"
test_readout = "IC50"
limit_sign = "="
quantitative_result = 31


Values were extracted from paper PMC5390315.
